Reported growth is given for each of the following compounds.
Test system: NCI-H226 lung
measurement_protocol: NCI-60 one-dose screen, 48 h (100 = growth as untreated, 0 = no growth, -100 = all killed)
condition_details: 10 µM unless noted
The panel holds about 83,000 compounds, 20% with a hit somewhere; the sample as a whole holds those more often. The source made the active and inactive calls. How the source made its calls: active means growth percent below 10; inactive means the rest.
readout_type: growth

>>> result("Clc1ccc(-c2nc(-c3c[nH]c4ncccc34)cs2)cc1")
"47.7% [100 µM] (inactive)"
>>> result("CCCCCCCCNc1cc2c3c(c1)CCCN3CCC2")
"39.1% (inactive)"
>>> result("CN(C)Cc1ccc(C(=O)Nc2ccc3ncnc(Nc4ccc(Oc5cccc(F)c5)c(Cl)c4)c3c2)cc1")
"80.2% (inactive)"
